- PROCEDURE TEXT: Ferret pharmacokinetic test
- Format: in vivo
- SETTINGS: plasma; 0.3 mg/kg intravenous, male ferret; read-out: CLtot (total body clearance)
PROPERTY NAME: clearance (mL/min/kg)
Kindly provide the numeric value in mL/min/kg only, without the unit symbol.

Consider the compound Cc1cc(F)ccc1-c1cc(N2CCC(CC(=O)O)CC2)ncc1N(C)C(=O)C(C)(C)c1cc(C(F)(F)F)cc(C(F)(F)F)c1 . State its measured clearance.
0.75

---

- PROCEDURE TEXT: Ferret pharmacokinetic test
- Type: in vivo
- SETTINGS: plasma; 1 mg/kg oral, male ferret; read-out: BA (bioavailability)
PROPERTY NAME: bioavailability (%)
Kindly provide the numeric value in % only, without the unit symbol.

Consider the compound Cc1cc(F)ccc1-c1cc(N2CCC(CC(=O)O)CC2)ncc1N(C)C(=O)C(C)(C)c1cc(C(F)(F)F)cc(C(F)(F)F)c1 . State its measured bioavailability.
61
